# Lookup of reported inhibition keyed by entry
# ASSAY_PROCEDURE: 384-well plate pilot, post-Golgi transport modulator project, inhibition of yeast transport mutant growth (AID 636); further: test concentration not given here
# ASSAY_CONDITIONS: absorbance 615 nm, about 18 h, stronger effect = higher value
A number alone suffices; assume %.

The examples below pair each entry with its known result.
{"COMPOUND": "ON1C2CCCCC2N(O)C1c1c(F)c(F)c(F)c(F)c1F (stereo not given)", "QUANTITY_UNIT": "%", "OBS_VALUE": -5.2}
{"COMPOUND": "Cc1ccc2[nH]c(=O)c(CN(Cc3ccc4c(c3)OCO4)Cc3nnnn3Cc3ccco3)cc2c1", "QUANTITY_UNIT": "%", "OBS_VALUE": -2.99}
{"COMPOUND": "COc1ccc(OCC(=O)N2CCN(C(=O)c3cccs3)CC2)cc1", "QUANTITY_UNIT": "%", "OBS_VALUE": -3.29}
{"COMPOUND": "O=C(Cn1cnc2c(cnn2-c2ccc(F)cc2)c1=O)N1CCCc2ccccc21", "QUANTITY_UNIT": "%", "OBS_VALUE": -4.67}
{"COMPOUND": "Clc1ccc(Cc2nn3c(-c4ccncc4)nnc3s2)cc1", "QUANTITY_UNIT": "%", "OBS_VALUE": -1.05}

Data request, read-out inhibition, for `Cc1ccc(NC(=O)CSc2nnc(NC(=O)CN3CCOCC3)s2)cc1` -5.33
